- System: SW-620 colon
- assay_summary: NCI tumour cell line growth inhibition, 48 h
Label 1 when TGI is at or above 4 µM; otherwise label 0.

1) CC/C=C\C[C@@H]1C/C=C2/C(=O)C=C[C@H]2C/C=C\CCCC(=O)O1    0
2) COc1ccc(-c2cn3ccsc3n2)cc1    1
3) O=c1[nH]c2cccc([N+](=O)[O-])c2c(=O)n1-c1ccc(Cl)cc1    1
4) CC[C@]12C=CCN3CC[C@@]4(c5cc(Br)c(OC)c([N+](=O)[O-])c5N(C)[C@H]4[C@@](O)(C(=O)OC)[C@@H]1OC(C)=O)[C@@H]32    1
5) C/C(Cl)=N/OC(=O)Nc1ccc(F)c([N+](=O)[O-])c1    1
6) COc1c2c(cc3nc4ccccc4nc13)CCC(C(C)(C)O)C2 (stereo not given)    1
7) CC(=O)OC1C=C(C=O)C(O)(C=O)C2(C)CCCC(C)(C)C12 (stereo not given)    0
8) Cn1c(-c2cccs2)cc(-c2cccs2)c1-c1cccs1    1
9) CC(C)OC(=O)c1ccc(NCC2=CC(=O)C=CC2=O)cc1    1
10) CCN(CC)CCN1CC(O)=C(c2nc(-c3ccc(Cl)cc3)cs2)C1=N    0
